Where do these numbers come from? They come from ChEMBL document CHEMBL3217528.

testTarget: N-arachidonyl glycine receptor (Homo sapiens)
Sequence (Q14330 whole entry): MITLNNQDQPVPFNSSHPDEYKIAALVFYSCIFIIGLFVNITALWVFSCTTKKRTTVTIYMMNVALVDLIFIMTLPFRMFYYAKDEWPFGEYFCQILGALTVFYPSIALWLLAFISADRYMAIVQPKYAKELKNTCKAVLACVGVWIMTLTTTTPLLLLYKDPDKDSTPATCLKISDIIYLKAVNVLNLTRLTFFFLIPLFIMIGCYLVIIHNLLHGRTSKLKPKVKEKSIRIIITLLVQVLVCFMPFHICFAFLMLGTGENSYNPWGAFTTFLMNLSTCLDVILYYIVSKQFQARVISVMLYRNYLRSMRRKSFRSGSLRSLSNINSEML
methodNotes: Agonist activity at human GPR18 expressed in […] cells by MAP kinase assay
Format: cell-based
pEC50: −log10 of the molar value.
quantity: pEC50

> print(dat)
                                   molecule  quantity  value
1  CCCCCc1cc(O)c2c(c1)OC(C)(C)[C@@H]1CCC(C)=C[C@@H]21 [DRONABINOL]     pEC50   6.02

* * *

testTarget: Cannabinoid receptor 1 (Homo sapiens, UniProt P21554)
Sequence (P21554 whole entry): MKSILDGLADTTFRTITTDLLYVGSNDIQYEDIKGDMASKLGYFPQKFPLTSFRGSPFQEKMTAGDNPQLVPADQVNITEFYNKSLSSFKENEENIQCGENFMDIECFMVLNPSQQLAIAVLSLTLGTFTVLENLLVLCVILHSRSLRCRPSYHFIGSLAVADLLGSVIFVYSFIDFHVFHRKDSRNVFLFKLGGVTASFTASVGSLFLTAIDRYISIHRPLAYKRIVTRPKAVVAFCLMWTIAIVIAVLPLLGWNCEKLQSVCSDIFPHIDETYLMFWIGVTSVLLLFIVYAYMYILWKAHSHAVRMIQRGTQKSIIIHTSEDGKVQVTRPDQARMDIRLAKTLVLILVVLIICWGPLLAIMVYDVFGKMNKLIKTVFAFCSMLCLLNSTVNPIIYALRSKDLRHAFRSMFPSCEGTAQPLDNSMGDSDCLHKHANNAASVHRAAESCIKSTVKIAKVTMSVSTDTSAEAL
methodNotes: Displacement of [3H]CP55,940 from human recombinant CB1 receptor expressed in CHO-K1 cells at 10 uM
Type: cell-based
inhibition values for the compounds below.
quantity: inhibition (%)

> print(dat)
                                   molsmiles    quantity  valueunits  value
 1        O=C1/C(=C/c2cccc(F)c2F)N=C2SCCCN12  inhibition           %      7
 2       O=C1N=C2SCCCCN2C1(c1ccccc1)c1ccccc1  inhibition           %     34
 3  O=C1/C(=C/c2cccc(OCc3ccc(Cl)cc3)c2)N=C2SCCCN12  inhibition           %      0
 4  O=C1/C(=C/c2ccc([N+](=O)[O-])cc2)N=C2SCCCN12  inhibition           %      0
 5        O=C1N2CCCSC2=NC1(c1ccccc1)c1ccccc1  inhibition           %     25
 6  O=C1/C(=C/c2cccc([N+](=O)[O-])c2)N=C2SCCCN12  inhibition           %     19
 7  O=C1/C(=C/c2cccc(OCc3ccc(Cl)c(Cl)c3)c2)N=C2SCCCN12  inhibition           %     15
 8  O=C1/C(=C/c2cccc(OCc3ccccc3)c2)N=C2SCCCN12  inhibition           %     25
 9        O=C1/C(=C/c2ccc(Cl)cc2)N=C2SCCCN12  inhibition           %     25
10        O=C1/C(=C/C=C/c2ccccc2)N=C2SCCCN12  inhibition           %     16
11          C/C(=C1/N=C2SCCCCN2C1=O)c1ccccc1  inhibition           %     10
12        O=C1N=C2SCCCN2C1(c1ccccc1)c1ccccc1  inhibition           %     13
13      O=C1/C(=C/c2cccc(Cl)c2Cl)N=C2SCCCN12  inhibition           %     12
14        COc1ccc(/C=C2\N=C3SCCCN3C2=O)cc1OC  inhibition           %      7
15        O=C1/C(=C/c2ccc(F)cc2F)N=C2SCCCN12  inhibition           %     13
16        O=C1/C(=C/c2ccc(Br)cc2)N=C2SCCCN12  inhibition           %     29
17      O=C1/C(=C/c2c(Cl)cccc2Cl)N=C2SCCCN12  inhibition           %     14
18         O=C1N=C2SCCN2C1(c1ccccc1)c1ccccc1  inhibition           %     30
19            O=C1/C(=C/c2ccccc2)N=C2SCCCN12  inhibition           %     40
20            COc1ccccc1/C=C1\N=C2SCCCN2C1=O  inhibition           %      4
21           O=C1/C(=C/c2ccccc2F)N=C2SCCCN12  inhibition           %     13
22  O=C(Oc1cccc(/C=C2\N=C3SCCCN3C2=O)c1)c1ccc(Cl)cc1  inhibition           %     12
23      COc1ccc(/C=C2\N=C3SCCCN3C2=O)c(OC)c1  inhibition           %     42
24          O=C1N=C2SCCCN2/C1=C\C=C\c1ccccc1  inhibition           %     26
